- assayTarget: T1, human CD138 (syndecan-1), membrane-bound on CD138+ multiple myeloma cell lines (human, UniProt P18827 23-310)
- T1 construct: whole, on cells; also called membrane CD138; cell surface CD138
- T1 sequence (looked up): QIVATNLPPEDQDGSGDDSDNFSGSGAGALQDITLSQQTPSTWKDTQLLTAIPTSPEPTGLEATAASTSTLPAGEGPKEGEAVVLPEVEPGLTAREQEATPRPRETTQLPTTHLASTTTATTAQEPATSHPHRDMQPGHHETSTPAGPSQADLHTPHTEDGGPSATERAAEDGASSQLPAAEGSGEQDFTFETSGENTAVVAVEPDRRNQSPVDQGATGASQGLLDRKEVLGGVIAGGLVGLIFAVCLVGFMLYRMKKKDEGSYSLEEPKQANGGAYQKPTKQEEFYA
- assayProcedure: flow cytometry on MM1.S, LP-1 and RPMI 8226 cells
measurementKind: binding result

humanized anti-CD138 antibody variant 4521 (antibody, human IgG1, V domains shown, also called mAb 4521) VH: QVQLVQSGAEVKKPGASVKVSCKASGYNFASYYMHWVRQAPGQGLEWMGTIHPSDSTTNYNQKFKGRVTMTVDTSTSTAYMELSSLRSEDTAVYYCANFVYWGQGTTVTVSS VL: DIVMTQTPLSLSVTPGQPASISCKSSKSLLYKDGKTYLNWFLQKPGQSPQLLIYVVSTRASGVPDRFSGSGSGTDFTLKISRVEAEDVGVYYCQQLVQYPYTFGQGTKLEIK : binds
humanized anti-CD138 antibody variant 3820 (antibody, human IgG1, V domains shown, also called mAb 3820) VH: QVQLVQSGAEVKKPGSSVKVSCKASGYSFSSYYMHWVRQAPGQGLEWMGTIHPSDSTANYNQKFKGRVTITVDKSTSTAYMELSSLRSEDTAVYYCANFVYWGQGTTVTVSS VL: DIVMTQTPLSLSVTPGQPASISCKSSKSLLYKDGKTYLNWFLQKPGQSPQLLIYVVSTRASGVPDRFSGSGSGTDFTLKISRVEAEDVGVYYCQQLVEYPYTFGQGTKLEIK : binds

Data credit: patent US20250382379A1
